# target_of_assay: SCD1 (Homo sapiens, UniProt O00767)
# Construct: host or cells: S. cerevisiae ole1Δ strain (W303 pdr1Δ pdr3Δ background), plasmid pRS316 with TDH3 promoter and CYC1 terminator
# Sequence (O00767 whole entry): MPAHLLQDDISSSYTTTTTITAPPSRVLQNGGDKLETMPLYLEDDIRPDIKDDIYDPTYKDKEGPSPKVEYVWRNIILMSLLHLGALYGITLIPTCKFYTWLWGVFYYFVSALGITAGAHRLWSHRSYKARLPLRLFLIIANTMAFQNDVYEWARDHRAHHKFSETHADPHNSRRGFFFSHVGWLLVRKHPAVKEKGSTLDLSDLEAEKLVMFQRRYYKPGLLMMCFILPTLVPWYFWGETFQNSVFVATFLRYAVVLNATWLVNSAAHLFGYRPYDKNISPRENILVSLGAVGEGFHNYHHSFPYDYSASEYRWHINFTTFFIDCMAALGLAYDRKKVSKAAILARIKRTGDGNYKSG
# experiment_notes: Growth inhibition of humanized yeast strain expressing SCD1 as sole desaturase
# Format: cell-based
# measurement_context: humanized yeast strain, 40 h
pIC50: −log10 of the molar value.

{"compound": "COC(=O)N1CCC(c2noc(-c3ccc4oc(=O)n(C5COC5)c4c3)n2)CC1", "pIC50": "< 4.35"}
{"compound": "CC(C)(C)OC(=O)N1CCN(c2noc(-c3ccc4cnn(C5CS(=O)(=O)C5)c4c3)n2)CC1", "pIC50": "< 4.35"}
{"compound": "CC(C)(C)OC(=O)N1CCC(c2nc(-c3ccc4cnc(C5COC5)n4c3)no2)CC1", "pIC50": "< 4.35"}
{"compound": "COC(=O)N1CCC(c2noc(-c3cc(C#N)c4cnn(C5COC5)c4c3)n2)CC1", "pIC50": "< 4.35"}
{"compound": "CC(C)n1ncc2ccc(-c3noc(N4CCN5C(=O)N(C)CC5C4)n3)cc21 (stereo not shown)", "pIC50": "< 4.35"}
{"compound": "CC(C)C(=O)N1CCC(c2noc(N3CCc4nn(C5COC5)cc4C3)n2)CC1", "pIC50": "< 4.35"}
{"compound": "CC(C)(C)OC(=O)N1CCN(c2noc(-c3cccc(C4CCCO4)c3)n2)CC1 (stereo not shown)", "pIC50": 5.04}
{"compound": "CC1(C(=O)N2CCN(c3nc(-c4ccc5cnn(C6COC6)c5c4)no3)CC2)CCCO1 (stereo not shown)", "pIC50": 5.71}
{"compound": "CC(C)(C)OC(=O)N1CCC(c2nc(-c3ccc4cn[nH]c4c3)no2)CC1", "pIC50": "< 4.35"}
{"compound": "COC(=O)N1CCC(c2nc(-c3ccc4cnn(C5CCOC5)c4c3)no2)CC1 (stereo not shown)", "pIC50": "< 4.35"}
{"compound": "CC(C)(C(=O)N1CCC(c2noc(-c3ccnc(C4CCOC4)c3)n2)CC1)C(F)(F)F (stereo not shown)", "pIC50": "< 4.35"}
{"compound": "CC1(OC(=O)N2CCC(c3noc(-c4ccnc(C5CCOC5)c4)n3)CC2)CC1 (stereo not shown)", "pIC50": "< 4.35"}
{"compound": "O=C(N1CCC(c2noc(-c3ccc4cnn(C5CCOC5)c4c3)n2)CC1)C1(F)CCC1 (stereo not shown)", "pIC50": 6.02}
{"compound": "COC1(C(=O)N2CCC(c3nc(-c4ccc5cnn(C(C)C)c5c4)no3)CC2)CC1", "pIC50": "< 4.35"}
{"compound": "CC(C)(C)OC(=O)N1CCC(/C(N)=N/OC(=O)c2ccc3cnn(C4COC4)c3c2)CC1", "pIC50": "< 4.35"}
{"compound": "CC(C)(C)CC(=O)N1CCC(c2nc(-c3ccc4cnn(C5CCOC5)c4c3)no2)CC1 (stereo not shown)", "pIC50": "< 4.35"}

###

# target_of_assay: SCD5 (Homo sapiens, UniProt Q86SK9)
# Construct: host or cells: S. cerevisiae ole1Δ strain (W303 pdr1Δ pdr3Δ background), plasmid pRS316 with TDH3 promoter and CYC1 terminator
# Sequence (Q86SK9 whole entry): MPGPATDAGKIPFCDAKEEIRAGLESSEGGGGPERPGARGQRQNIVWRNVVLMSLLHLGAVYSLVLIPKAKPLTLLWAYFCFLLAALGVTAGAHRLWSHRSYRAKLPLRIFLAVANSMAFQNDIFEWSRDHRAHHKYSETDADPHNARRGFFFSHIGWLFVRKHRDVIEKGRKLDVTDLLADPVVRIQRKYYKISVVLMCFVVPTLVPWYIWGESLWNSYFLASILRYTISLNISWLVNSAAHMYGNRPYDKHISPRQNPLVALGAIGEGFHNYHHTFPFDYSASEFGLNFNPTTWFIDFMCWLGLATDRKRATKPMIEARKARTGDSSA
# experiment_notes: Growth inhibition of humanized yeast strain expressing SCD5 as sole desaturase
# Type: cell-based
# measurement_context: humanized yeast strain expressing SCD5
As shown below, each of these compounds has a reported SCD5 % Max Inhibition value.
readout_type: SCD5 % Max Inhibition (%)

{"compound": "CCNCc1nc(-c2ccc3c(c2)N(CC)C(=O)CO3)no1 [Compound 493]", "readout_type": "SCD5 % Max Inhibition", "unit_abbrev": "%", "observed_value": 60.28}
{"compound": "Cc1nn(C)c2cc(-c3noc(C4CCN(C(=O)c5ccccc5C(F)(F)F)CC4)n3)ccc12 [Compound 283]", "readout_type": "SCD5 % Max Inhibition", "unit_abbrev": "%", "observed_value": 9.83}
{"compound": "CC(C)n1ncc2ccc(-c3noc(N4CCN(C(=O)OC(C)(C)C)CC4)n3)cc21 [Compound 349]", "readout_type": "SCD5 % Max Inhibition", "unit_abbrev": "%", "observed_value": 0.2}
{"compound": "COc1ccc(-c2noc(C3CCN(C(=O)CNC(=O)c4ccccn4)CC3)n2)cc1OC [Compound 145]", "readout_type": "SCD5 % Max Inhibition", "unit_abbrev": "%", "observed_value": 86.51}
{"compound": "Cc1ccc(-c2nc(C3CCN(C(=O)C4CC(=O)N(c5ccc(C)c(C)c5)C4)CC3)no2)cc1 (centres unmarked) [Compound 50]", "readout_type": "SCD5 % Max Inhibition", "unit_abbrev": "%", "observed_value": 46.80}
{"compound": "COc1ccc(-c2noc(C3CCN(C(=O)c4ccc(C(C)C)cc4)CC3)n2)cc1OC [Compound 127]", "readout_type": "SCD5 % Max Inhibition", "unit_abbrev": "%", "observed_value": 88.59}
{"compound": "Cc1nn(C)c2cc(-c3nc(C4CCN(C(=O)CNC(=O)c5ccccc5)CC4)no3)ccc12 [Compound 326]", "readout_type": "SCD5 % Max Inhibition", "unit_abbrev": "%", "observed_value": 26.5}
{"compound": "O=C(CN1Cc2ccccc2C1=O)N1CCC(c2nc(-c3ccc4nonc4c3)no2)CC1 [Compound 182]", "readout_type": "SCD5 % Max Inhibition", "unit_abbrev": "%", "observed_value": 79.82}
